- Assayed system: H. pylori MurI (Helicobacter pylori)
- Sequence (Q9ZLT0 whole entry): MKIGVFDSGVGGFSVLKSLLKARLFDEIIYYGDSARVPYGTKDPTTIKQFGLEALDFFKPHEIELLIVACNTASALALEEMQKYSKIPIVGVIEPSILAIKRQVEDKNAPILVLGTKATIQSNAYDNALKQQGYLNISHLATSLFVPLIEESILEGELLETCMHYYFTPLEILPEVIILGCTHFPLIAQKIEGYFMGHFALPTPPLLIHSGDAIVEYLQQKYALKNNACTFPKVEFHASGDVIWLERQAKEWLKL
Label Satisfied when IC50 < 9 µM; otherwise Not satisfied.

Known results for compounds:
>>> df
                                   compound            cat
0  Cn1c(=O)c2c(-c3ccncc3)n(Cc3cccc4ccccc34)nc2n(CS(=O)(=O)C(F)(F)F)c1=O  Not satisfied
1  CC(C)Cn1c(=O)n(C)c(=O)c2c(-c3cccc(-c4nnn[nH]4)c3)n(Cc3cccc4ccccc34)nc21      Satisfied
2  Cn1c(=O)c2c(-c3ccncc3)n(Cc3cccc4ccccc34)nc2n(C[S+](C)[O-])c1=O (racemic)  Not satisfied

Consider the record given below.
Challenge: is_below(IC50, 9 µM) for Cn1c(=O)c2c(-c3ccncc3)n(Cc3cccc4ccccc34)nc2n(C[S+]([O-])C(F)(F)F)c1=O (racemic) ?
Response given: Not satisfied
